# tested_target: c-Met (Homo sapiens (Human), UniProt P08581)
# Sequence (P08581 25-1390): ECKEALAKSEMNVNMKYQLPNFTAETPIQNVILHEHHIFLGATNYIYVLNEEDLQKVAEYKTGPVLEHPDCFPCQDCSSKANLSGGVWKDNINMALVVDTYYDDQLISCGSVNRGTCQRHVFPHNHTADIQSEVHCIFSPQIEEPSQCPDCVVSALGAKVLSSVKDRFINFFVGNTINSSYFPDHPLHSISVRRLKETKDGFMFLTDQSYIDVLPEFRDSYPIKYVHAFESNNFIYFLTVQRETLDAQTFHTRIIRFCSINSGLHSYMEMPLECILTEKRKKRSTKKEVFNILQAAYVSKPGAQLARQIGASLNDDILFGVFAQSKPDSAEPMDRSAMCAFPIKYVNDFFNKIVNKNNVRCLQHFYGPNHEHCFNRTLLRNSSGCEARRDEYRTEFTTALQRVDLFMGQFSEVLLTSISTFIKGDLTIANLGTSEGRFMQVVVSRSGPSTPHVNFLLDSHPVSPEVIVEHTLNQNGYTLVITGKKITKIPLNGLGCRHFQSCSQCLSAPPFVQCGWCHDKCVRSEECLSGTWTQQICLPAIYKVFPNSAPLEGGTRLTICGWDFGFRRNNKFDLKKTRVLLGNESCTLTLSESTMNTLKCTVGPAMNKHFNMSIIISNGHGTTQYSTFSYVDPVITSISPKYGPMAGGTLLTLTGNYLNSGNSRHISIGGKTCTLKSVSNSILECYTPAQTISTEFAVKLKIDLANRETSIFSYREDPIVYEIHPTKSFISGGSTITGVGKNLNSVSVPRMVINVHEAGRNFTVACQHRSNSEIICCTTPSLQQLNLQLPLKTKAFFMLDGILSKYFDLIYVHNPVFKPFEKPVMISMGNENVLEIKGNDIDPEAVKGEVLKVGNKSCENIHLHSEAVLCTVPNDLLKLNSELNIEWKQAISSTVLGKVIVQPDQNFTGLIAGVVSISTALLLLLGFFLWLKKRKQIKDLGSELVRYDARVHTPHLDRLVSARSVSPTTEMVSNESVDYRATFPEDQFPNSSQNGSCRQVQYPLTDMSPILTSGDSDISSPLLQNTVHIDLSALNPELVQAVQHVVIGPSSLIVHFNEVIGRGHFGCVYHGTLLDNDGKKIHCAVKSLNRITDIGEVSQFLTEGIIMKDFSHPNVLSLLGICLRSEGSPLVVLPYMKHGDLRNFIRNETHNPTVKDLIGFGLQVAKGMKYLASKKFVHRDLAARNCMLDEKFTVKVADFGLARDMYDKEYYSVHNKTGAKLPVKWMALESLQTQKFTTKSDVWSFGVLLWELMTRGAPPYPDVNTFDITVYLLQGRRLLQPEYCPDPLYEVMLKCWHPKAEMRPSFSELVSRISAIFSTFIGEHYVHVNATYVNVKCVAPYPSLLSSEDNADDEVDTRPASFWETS
measured_property: IC50

Q) # lookup: IC50 of Cc1c(C(=O)Nc2ccc(Oc3ccnc4cc(OCC(C)(C)O)ccc34)c(F)c2)c(=O)n(-c2ccccc2)n1C [Example 1]
A) 6.9 nM

====

# tested_target: UniProtKB P35968
# Sequence (P35968 20-1356): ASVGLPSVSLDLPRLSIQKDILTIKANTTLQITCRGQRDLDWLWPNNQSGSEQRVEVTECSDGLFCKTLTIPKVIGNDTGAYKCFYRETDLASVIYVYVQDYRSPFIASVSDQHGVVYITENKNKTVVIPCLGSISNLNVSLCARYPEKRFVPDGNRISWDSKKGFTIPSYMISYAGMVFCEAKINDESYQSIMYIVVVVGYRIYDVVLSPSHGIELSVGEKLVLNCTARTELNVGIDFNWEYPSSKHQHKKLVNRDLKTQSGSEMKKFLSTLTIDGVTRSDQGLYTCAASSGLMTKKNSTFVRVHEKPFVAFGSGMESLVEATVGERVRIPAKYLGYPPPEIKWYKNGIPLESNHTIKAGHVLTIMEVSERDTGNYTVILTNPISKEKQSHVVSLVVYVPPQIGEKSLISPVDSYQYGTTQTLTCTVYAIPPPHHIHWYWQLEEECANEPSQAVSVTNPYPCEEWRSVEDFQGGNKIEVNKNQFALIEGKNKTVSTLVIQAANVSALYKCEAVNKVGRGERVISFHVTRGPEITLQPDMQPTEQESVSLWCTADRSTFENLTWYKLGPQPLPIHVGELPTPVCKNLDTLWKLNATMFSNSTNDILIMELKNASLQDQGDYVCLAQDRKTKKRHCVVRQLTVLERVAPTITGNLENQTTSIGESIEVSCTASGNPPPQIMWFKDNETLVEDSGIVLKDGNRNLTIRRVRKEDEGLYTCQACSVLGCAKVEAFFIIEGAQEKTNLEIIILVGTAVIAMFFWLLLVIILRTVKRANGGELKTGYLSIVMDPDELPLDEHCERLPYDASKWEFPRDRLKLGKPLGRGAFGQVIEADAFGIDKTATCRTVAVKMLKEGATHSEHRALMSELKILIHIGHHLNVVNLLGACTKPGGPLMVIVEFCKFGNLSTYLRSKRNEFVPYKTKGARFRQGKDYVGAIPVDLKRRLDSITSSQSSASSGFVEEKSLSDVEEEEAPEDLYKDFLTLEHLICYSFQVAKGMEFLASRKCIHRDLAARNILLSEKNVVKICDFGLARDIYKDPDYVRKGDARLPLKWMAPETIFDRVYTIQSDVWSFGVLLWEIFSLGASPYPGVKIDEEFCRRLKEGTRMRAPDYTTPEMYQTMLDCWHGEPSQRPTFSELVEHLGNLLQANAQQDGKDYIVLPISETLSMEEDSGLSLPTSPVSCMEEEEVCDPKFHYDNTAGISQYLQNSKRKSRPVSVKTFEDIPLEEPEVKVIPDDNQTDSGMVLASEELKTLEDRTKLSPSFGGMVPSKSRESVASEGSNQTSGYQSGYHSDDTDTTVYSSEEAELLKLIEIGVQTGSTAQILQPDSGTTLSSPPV
# test_summary: KDR (h) (VEGF-R2(h)) kinase assay
# Assay type: biochemical
# Protocol: Kinase assays can be performed by measurement of incorporation of —^33P ATP into immobilized myelin basic protein (MBP). High binding white 384 well plates (Greiner) are coated with MBP (Sigma #M-1891) by incubation of 60 μl/well of 20 μg/ml MBP in Tris-buffered saline (TBS; 50 mM Tris pH 8.0, 138 mM NaCl, 2.7 mM KCl) for 24 hours at 4° C. […] Each data point is measured in duplicate, and at least two duplicate assays are performed for each individual compound determination. […]
measured_property: IC50 (nM)
API: value field is a number in nM; no unit string.

Q) # lookup: IC50 of Cc1c(C(=O)Nc2ccc(Oc3ccnc4cc(OCC(C)(C)O)ccc34)c(F)c2)c(=O)n(-c2ccccc2)n1C
A) 37

====

# tested_target: Axl (h) (Homo sapiens (Human), UniProt P30530)
# Sequence (P30530 26-894): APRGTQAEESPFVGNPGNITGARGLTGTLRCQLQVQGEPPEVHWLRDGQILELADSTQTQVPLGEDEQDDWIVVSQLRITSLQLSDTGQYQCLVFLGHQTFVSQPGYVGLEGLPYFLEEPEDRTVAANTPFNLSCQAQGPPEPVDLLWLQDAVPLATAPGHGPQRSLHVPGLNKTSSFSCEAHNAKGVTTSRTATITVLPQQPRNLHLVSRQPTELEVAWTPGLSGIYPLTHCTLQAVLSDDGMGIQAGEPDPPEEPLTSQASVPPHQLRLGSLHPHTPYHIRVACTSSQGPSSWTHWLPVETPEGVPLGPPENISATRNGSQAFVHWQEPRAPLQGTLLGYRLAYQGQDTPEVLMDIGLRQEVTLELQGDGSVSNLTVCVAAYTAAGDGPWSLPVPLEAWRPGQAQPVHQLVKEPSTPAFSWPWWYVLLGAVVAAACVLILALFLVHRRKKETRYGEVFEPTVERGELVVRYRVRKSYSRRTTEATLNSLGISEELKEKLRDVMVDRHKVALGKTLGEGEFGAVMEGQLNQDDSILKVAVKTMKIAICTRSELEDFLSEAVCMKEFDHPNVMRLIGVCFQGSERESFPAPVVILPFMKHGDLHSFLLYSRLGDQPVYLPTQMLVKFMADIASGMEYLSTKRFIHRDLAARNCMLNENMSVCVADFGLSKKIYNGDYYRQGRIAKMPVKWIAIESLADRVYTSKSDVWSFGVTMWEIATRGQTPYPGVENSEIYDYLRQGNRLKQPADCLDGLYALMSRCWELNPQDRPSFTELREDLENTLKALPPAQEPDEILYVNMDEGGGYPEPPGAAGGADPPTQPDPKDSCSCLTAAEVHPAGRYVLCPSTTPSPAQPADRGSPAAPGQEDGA
measured_property: pIC50
// pIC50 is dimensionless: -log10 of concentration (M)

Q) Request - read-out pIC50 | tested on Axl (h) (Homo sapiens (Human), UniProt P30530) | molecule Cc1c(C(=O)Nc2ccc(Oc3ccnc4cc(OCC(C)(C)O)ccc34)c(F)c2)c(=O)n(-c2ccccc2)n1C
A) 7.96

The measured values listed here are drawn from patent US9133162B2.
